Where these numbers come from: patent US20210403506A1

# Assayed System: T1, human Chemokine like receptor 1 (human, UniProt Q99788 1-373)
# T1 sequence (looked up): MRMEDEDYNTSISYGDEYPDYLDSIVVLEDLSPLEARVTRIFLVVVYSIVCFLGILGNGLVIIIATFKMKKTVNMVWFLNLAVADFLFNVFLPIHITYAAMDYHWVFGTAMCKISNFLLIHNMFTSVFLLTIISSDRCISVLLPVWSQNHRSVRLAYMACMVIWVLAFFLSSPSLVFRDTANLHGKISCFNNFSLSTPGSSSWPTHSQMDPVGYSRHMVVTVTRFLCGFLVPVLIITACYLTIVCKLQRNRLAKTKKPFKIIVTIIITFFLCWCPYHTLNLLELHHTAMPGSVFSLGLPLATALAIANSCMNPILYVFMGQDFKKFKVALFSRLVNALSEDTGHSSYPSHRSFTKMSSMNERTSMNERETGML
# Method Notes: cell-based or functional assay
Square brackets hold non-standard residues; d marks the D form. Ends that are not written are not given here. 2Nal = N[C@@H](Cc1ccc2ccccc2c1)C(=O)O; NMehLeu = CN[C@@H](CCC(C)C)C(=O)O; Tic = O=C(O)[C@@H]1Cc2ccccc2CN1; NMeL = CN[C@@H](CC(C)C)C(=O)O
Readout Label: EC50 (µM), activation of Tango CMKLR1-bla U2OS cells

- [dY]F[NMeL]P[dS]Q[2Nal][dA][Tic]S-OH (N-terminus assumed; SMILES CC(C)C[C@@H](C(=O)N1CCC[C@H]1C(=O)N[C@H](CO)C(=O)N[C@@H](CCC(N)=O)C(=O)N[C@@H](Cc1ccc2ccccc2c1)C(=O)N[C@H](C)C(=O)N1Cc2ccccc2C[C@H]1C(=O)N[C@@H](CO)C(=O)O)N(C)C(=O)[C@H](Cc1ccccc1)NC(=O)[C@H](N)Cc1ccc(O)cc1) [YW-164]: 0.0011 µM
- [dY]F[NMehLeu]P[dS]QF[dA][Tic]S-OH (N-terminus assumed; SMILES CC(C)CC[C@@H](C(=O)N1CCC[C@H]1C(=O)N[C@H](CO)C(=O)N[C@@H](CCC(N)=O)C(=O)N[C@@H](Cc1ccccc1)C(=O)N[C@H](C)C(=O)N1Cc2ccccc2C[C@H]1C(=O)N[C@@H](CO)C(=O)O)N(C)C(=O)[C@H](Cc1ccccc1)NC(=O)[C@H](N)Cc1ccc(O)cc1) [YW-101]: 0.0029 µM
